Test system: DU-145 prostate
assay-explanation: NCI-60 one-dose screen, 48 h (100 = growth as untreated, 0 = no growth, -100 = all killed)
experimental-conditions: 10 µM unless noted
The panel holds about 83,000 compounds, 20% with a hit somewhere; the sample as a whole holds those more often. Calls of active or inactive are those of the source. The calls were made as follows: active = growth percent below 10; inactive = the rest.
reported-metric: growth

Check out these entries, answers already filled in.
Enter recorded growth with DU-145 prostate for C=C1CC2(OC1=O)C(=O)Nc1ccccc12 (configuration not stated) here.
43% (inactive)

Determine reported growth for CCCNc1nc(SC)nc(-c2cccc(N)c2)c1C#N ; test system: DU-145 prostate.
109% (inactive)

# lookup: DU-145 prostate growth, key = COCCOc1ccc(-c2nc3ccc(-c4nc5ccc(N6CCN(C)CC6)cc5[nH]4)cc3[nH]2)cc1
29.7% (inactive)

Quote growth with test system DU-145 prostate for CN(C)CC(=O)Nc1ccc(Cn2nnc3c2C(=O)c2nnn(Cc4ccc(NC(=O)CN(C)C)cc4)c2C3=O)cc1
-96.2% (active)

For DU-145 prostate, give growth of the listed molecule: Cc1ccc(NC(=O)c2sc3nc4c(cc3c2N)C(=O)CCC4)cc1C
8.18% (active)

More entries:
System DU-145 prostate. Read-out growth. Item COc1cc(NCCCCN=C(N)NC(N)=NC(C)C)c2ncccc2c1 . Report value.
127% (inactive)

Please report growth with DU-145 prostate for item Nc1nc(-c2ccc(F)cc2)cc(-c2cnn(-c3ccccc3)n2)n1 .
104% (inactive)

// output growth; input COc1ccccc1-c1ccc2c(N)c(C(=O)c3ccc4c(c3)OCO4)sc2n1 ; system DU-145 prostate
90.5% (inactive)

Param request: growth | system DU-145 prostate | item O=C(/C=C\c1cccc([N+](=O)[O-])c1)c1ccccc1
59% (inactive)

###

Tested on: MDA-MB-435 melanoma
assay-explanation: NCI-60 one-dose screen, 48 h (100 = growth as untreated, 0 = no growth, -100 = all killed)
experimental-conditions: 10 µM unless noted
Compounds without any hit were thinned out: in the full panel of roughly 83,000, 20% have a hit.
reported-metric: growth (%)
Response body: numeric value in %, unit text excluded.

Recorded results for 5 compounds are shown here.
Quick one: give measured growth for COc1cnc2c(c1)C(=O)c1c-2n(CCCN2CCN(C)CC2)c(=O)c2cc([N+](=O)[O-])ccc12
-93.8

Look up and report measured growth for this entry: Cc1ccc2cnc(N)c(C#Cc3cncc(C(=O)Nc4ccc(CN5CCN(C)CC5)c(C(F)(F)F)c4)c3)c2c1
-96.6

# return recorded growth for input COc1cc(C(=O)/C=C/c2c(C)n([O-])c3ccc(C)cc3[n+]2=O)cc(OC)c1OC
60.1

Give the reported value of growth for this record: CCCCCCCCCCCCCC(=O)C(C)N (stereo not given)
78.5

Using the record for CCN(CC)CCC(=O)Nc1ccc(Cn2nnc3c2C(=O)c2nnn(Cc4ccc(NC(=O)CCN(CC)CC)cc4)c2C3=O)cc1 , state its measured growth.
-80.1

Next:
Give the measured growth for CCCN(CCC)CN(CCC)CCC
99.4

Let me know recorded growth for COc1ccc(C2c3ccc4ccccc4c3Oc3ncnc(N)c32)cc1 (stereo not given) , thanks.
8.46

###

Test system: SW-620 colon
assay-explanation: NCI-60 one-dose screen, 48 h (100 = growth as untreated, 0 = no growth, -100 = all killed)
experimental-conditions: 10 µM unless noted
About 83,000 compounds went through this panel and 20% of them were active in at least one assay; those are over-represented in the sample as a whole.
Catalogue of growth values
// note: answer is a bare numeric in %

Indicate its recorded growth; the compound in question is O=C1c2cc3c(cc2-c2c1c1cc(F)c(F)cc1c(=O)n2C[C@H](O)CO)OCO3
11.7

Supply growth value. Item: COc1ccc2nc(NC(=O)c3cccnc3Nc3cc(OC)c(OC)c(OC)c3)sc2c1
27.8

Please report growth for the following compound: COc1cc(OC)c(/C=C/S(=O)(=O)Cc2ccc(OC)c(N)n2)c(OC)c1
25.5

Give a short answer stating reported growth for Cc1ccc(Nc2nc(N)nc(Nc3ccc4ccccc4c3)n2)cc1 .
23.5

Here is the next item to consider.
Write down growth measured for item COc1ccc(-c2cn3c(ccc4ccccc43)n2)cc1
97.5

###

Test system: SF-268 CNS
assay-explanation: NCI-60 one-dose screen, 48 h (100 = growth as untreated, 0 = no growth, -100 = all killed)
experimental-conditions: 10 µM unless noted
This is part of a sample that, as a whole, favours compounds with a hit. Of some 83,000 tested, about 20% had one in any assay.
reported-metric: growth (%)
Entry rule: numbers only, all in %.

Under SF-268 CNS, report growth for COc1ccc(S(=O)(=O)NCCCNc2nccc(-c3c(-c4cccc(N)c4)nc4sccn34)n2)cc1
87.6

Fill in: growth on SF-268 CNS, entry C#Cc1nc(Nc2cc(C)[nH]n2)c2ccccc2n1
-86

Name the value of growth reported for O=C(Nc1cccc2[nH]c(C(F)(F)F)nc12)c1ccc(Br)cc1F when tested on SF-268 CNS.
29.1

Report its growth with SF-268 CNS as the test system: CC1=C(C)C(=O)OC([C@](C)(O)[C@]2(O)CC[C@@]3(O)[C@@H]4C[C@H]5O[C@]56CC=CC(=O)[C@]6(C)[C@H]4CC[C@]23COC(=O)c2ccc(C)o2)C1 (stereo partly drawn)
-55.8

Provide growth, system SF-268 CNS, entry COc1cc(C2CC(=O)Nc3c2c(C)nn3-c2nc3ccccc3[nH]2)cc(OC)c1OC (stereo not drawn)
112

Others:
Provide growth, tested on SF-268 CNS, for CNC(=O)c1cc(Oc2ccc3nc(NC(=O)Nc4ccc(N5CCC(N(C)C)CC5)cc4)sc3c2)ccn1 .
84.7

For SF-268 CNS, give growth of the listed molecule: COc1ccc(C(=O)/C=C/c2c(Cl)c3c(c(OC)c2Cl)OCC(=O)N3)cc1
29.9

Give SF-268 CNS growth for the following molecule: O=C(Cn1cc(CN2C(=O)c3ccccc3S2(=O)=O)nn1)Nc1ccc([N+](=O)[O-])cc1Cl
100

###

System: KM12 colon
assay-explanation: NCI-60 one-dose screen, 48 h
experimental-conditions: 10 µM unless noted
This is part of a sample that, as a whole, favours compounds with a hit. Of some 83,000 tested, about 20% had one in any assay. Active and inactive are the calls of the source. How the source made its calls: active means growth percent below 10; inactive means the rest.
Returns: one label drawn from active, inactive

Look over these answered cases.
Just curious, what result did CC/C(=C(\c1ccccc1)c1ccc(OCCNC)cc1)c1ccccc1 get here?
active

For COc1ccc(-c2cc(/C=C3\C(=O)Nc4ccc(Cl)cc43)[nH]n2)cc1 , what call appears in the results of this test?
inactive

***
How did this test come out for COc1ccc(-c2c3c(nc4n[nH]c(-c5ccc(Cl)cc5)c24)-c2ccccc2C(=O)C3=O)cc1 ?
active

Assay result, entry O=S(=O)(Nc1ccc(Cl)cc1Cl)c1ccc(-c2cnc(C3CC3)o2)cc1 — outcome?
inactive

Field: outcome | Entry: COc1c2ccccc2c(OC)c2[nH]c(=O)ccc12
inactive

What did this assay record as the result for CCN(CC)c1ccc(/C=C/C2=[N+](C)c3ccccc3C2(C)C)cc1 ?
active

Call for entry COc1ccc(C(=O)COc2ccc(/C=C3\Oc4ccc(Cl)cc4C3=O)cc2)cc1 :
inactive

For this compound, state the assay outcome: NC(=S)N/N=C/c1ccc(OCc2ccccc2)cc1
inactive

###

Test system: SN12C renal
assay-explanation: NCI-60 one-dose screen, 48 h (100 = growth as untreated, 0 = no growth, -100 = all killed)
experimental-conditions: 10 µM unless noted
About 83,000 compounds went through this panel and 20% of them were active in at least one assay; those are over-represented in the sample as a whole.
reported-metric: growth (%)
# number only, unit % dropped from output

Study these solved cases before continuing.
Look up and report measured growth for this entry: N=c1c2ccccc2nc2n1CCCCC2
104

Tell me measured growth for CCOC(=O)c1c2c(n3ccc(NC(=O)CCN(CC)CC)cc13)C(=O)c1ncccc1C2=O please.
27.6

Please supply the value of reported growth for the item Cc1ccc(C2CC3c4ccccc4C2C2CCCCN32)cc1 (centres undefined)
90.3

Others:
Indicate its recorded growth; the molecule in question is O=C(CNC1C2CC3CC(C2)CC1C3)Sc1nnc2sc3ccccc3n12 (centres undefined)
101

###

System: RXF 393 renal
assay-explanation: NCI-60 one-dose screen, 48 h (100 = growth as untreated, 0 = no growth, -100 = all killed)
experimental-conditions: 10 µM unless noted
About 83,000 compounds went through this panel and 20% of them were active in at least one assay; those are over-represented in the sample as a whole.
reported-metric: growth (%)
// return numeric value only (unit: %, not printed)

Consider the molecule CS(CCCCN=C=S)=NC(=O)c1c(F)c(F)c(F)c(F)c1F (stereo not given) and give its recorded growth.
41.9

Answer with the recorded growth of CC/C(Cc1ccccc1)=C(\c1ccc(OCCN2CCCC2)cc1)c1ccc(OC(C)=O)cc1 only.
65

Look up and state reported growth for CNCc1cccc2c1OCCOCCOCCN(C)S(=O)(=O)c1ccc(cc1)-c1cnc(N)c(n1)C(=O)N2
-54.8

For Cc1ccn2c(-c3csc(Nc4cccc(O)c4)n3)c(C)nc2c1 , write its growth.
0.213

Specify measured growth for COc1ccc(CNc2nccnn2)cc1 .
88.1

Just for reference, PubChem BioAssay (NCI) is where these values come from.
